Biological target: Human mTOR (FLAG-TOR) (Homo sapiens)
Sequence (P42345 1360-2549 limits assumed): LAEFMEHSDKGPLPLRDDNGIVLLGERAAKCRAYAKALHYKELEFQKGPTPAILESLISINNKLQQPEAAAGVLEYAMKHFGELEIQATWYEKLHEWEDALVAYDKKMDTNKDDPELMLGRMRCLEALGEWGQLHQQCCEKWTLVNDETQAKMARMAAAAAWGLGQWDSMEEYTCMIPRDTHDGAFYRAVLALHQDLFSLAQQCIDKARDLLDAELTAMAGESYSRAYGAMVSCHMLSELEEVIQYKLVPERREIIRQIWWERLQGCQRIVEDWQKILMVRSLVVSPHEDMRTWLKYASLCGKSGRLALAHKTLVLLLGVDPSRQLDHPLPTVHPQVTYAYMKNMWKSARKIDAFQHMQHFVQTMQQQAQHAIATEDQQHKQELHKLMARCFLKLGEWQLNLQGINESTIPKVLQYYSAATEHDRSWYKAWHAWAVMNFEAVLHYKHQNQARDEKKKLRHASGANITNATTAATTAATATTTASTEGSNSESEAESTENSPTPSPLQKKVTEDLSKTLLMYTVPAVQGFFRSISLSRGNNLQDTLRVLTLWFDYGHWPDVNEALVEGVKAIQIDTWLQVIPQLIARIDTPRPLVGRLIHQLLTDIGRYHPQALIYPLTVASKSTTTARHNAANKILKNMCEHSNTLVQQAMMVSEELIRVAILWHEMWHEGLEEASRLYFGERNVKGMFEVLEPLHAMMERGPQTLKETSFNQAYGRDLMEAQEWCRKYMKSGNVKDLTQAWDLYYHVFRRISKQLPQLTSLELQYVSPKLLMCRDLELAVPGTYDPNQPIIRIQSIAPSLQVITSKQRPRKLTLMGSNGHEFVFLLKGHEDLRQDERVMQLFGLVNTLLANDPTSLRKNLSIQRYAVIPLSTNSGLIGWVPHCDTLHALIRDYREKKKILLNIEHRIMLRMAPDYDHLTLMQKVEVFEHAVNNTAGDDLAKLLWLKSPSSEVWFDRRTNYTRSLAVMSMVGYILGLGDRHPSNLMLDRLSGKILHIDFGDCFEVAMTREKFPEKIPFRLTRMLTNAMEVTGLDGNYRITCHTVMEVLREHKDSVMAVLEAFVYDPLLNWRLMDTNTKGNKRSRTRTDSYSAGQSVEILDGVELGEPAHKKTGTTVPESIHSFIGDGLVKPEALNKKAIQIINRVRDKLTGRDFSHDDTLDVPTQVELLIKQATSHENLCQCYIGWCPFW
Assay: mTOR kinase assay (DELFIA format, purified enzyme)
Format: biochemical
Conditions: read-out: IC50 mTOR
Below, each entry is listed alongside its reported log10(IC50).
measured-parameter: log10(IC50) (log10 of the value in nM)

>>> df
                                    compound  measurement
 0  C[C@@H]1COCCN1c1nc(-c2ccc(NC(=O)Nc3ccc(N4CCN(C)CC4)cc3)cc2)nc(N2C[C@@H]3C[C@H]2CO3)n1         0.86
 1  O=C(Nc1ccc(C(=O)O)cc1)Nc1ccc(-c2nc(N3CCCC3)nc(N3CCOCC3)n2)cc1         1.11
 2  CN(C)Cc1ccc(NC(=O)Nc2ccc(-c3nc(N4CCSCC4)nc(N4C5CCC4COC5)n3)cc2)cc1         1.15
 3  C[C@H]1COCCN1c1nc(-c2ccc(NC(=O)Nc3ccc(C(=O)NCCN4CCN(C)CC4)cc3)cc2)nc(N2CCOC[C@@H]2C)n1         0.00
 4  CC(C)N1CCN(C(=O)c2ccc(NC(=O)Nc3ccc(-c4nc(N5CCOCC5)nc(N5CCCN(C(C)C)CC5)n4)cc3)cc2)CC1         2.77
 5  O=C(Nc1ccncc1)Nc1ccc(-c2nc(N3CCOCC3)nc(N3C4COCC(O)C3C4)n2)cc1 (stereo not shown)         0.46
 6  CN1CCN(c2ccc(NC(=O)Nc3ccc(-c4nc(N5CC6CCC(C5)O6)nc(N5CC6CCC(C5)O6)n4)cc3)cc2)CC1        -0.02
 7  CN(C)C(=O)Nc1ccc(NC(=O)Nc2ccc(-c3nc(N4CCOCC4)nc(N4CCOCC4)n3)cc2)cc1         0.13
 8  CCN1CCN(C(=O)c2ccc(NC(=O)Nc3ccc(-c4nc(N5CCOCC5)nc(N5CCOC[C@@H]5C)n4)cc3)cc2)CC1         0.48
 9  CC(C)CN1CCN(C(=O)c2ccc(NC(=O)Nc3ccc(-c4nc(N5CCOC[C@@H]5C)nc(N5CCOC[C@@H]5C)n4)cc3)cc2)CC1         0.60
10  CC(C)(C)OC(=O)N1CC(Nc2nc(-c3ccc(NC(=O)Nc4ccc(F)cc4)cc3)nc(N3CCOCC3)n2)C1         1.06
11  CC(C)Nc1nc(-c2ccc(NC(=O)NC3CC3)cc2)nc(N2CC3CCC(C2)O3)n1         0.98
12  N#Cc1ccc(NC(=O)Nc2ccc(-c3nc(N4CCOCC4)nc(N4C5CCC4COC5)n3)cc2)cc1         0.53
13  C[C@@H]1COCCN1c1nc(-c2ccc(NC(=O)Nc3ccc(OCCN(C)C)cc3)cc2)nc(C2CCOCC2)n1         0.11
14  CCN1CCN(C(=O)c2ccc(NC(=O)Nc3ccc(-c4nc(N5CCOCC5)nc(N5C6COCC5COC6)n4)cc3)cc2)CC1        -0.62
15  CCC(C)Nc1nc(-c2ccc(NC(=O)Nc3cccnc3)cc2)nc(N2CC3CCC(C2)O3)n1 (stereo not shown)         0.00
16  Cc1ccc(-c2nc(-c3ccc(NC(=O)Nc4ccc(C(=O)NCCN5CCCC5)cc4)cc3)nc(N3CCOCC3)n2)cc1         0.99
17  O=C(Nc1ccc(C(=O)N2CCNCC2)cc1)Nc1ccc(-c2nc(N3CCOCC3)nc(N3C4CCC3COC4)n2)cc1        -0.70
18  CC(C)Nc1nc(-c2ccc(NC(=O)Nc3ccc(CO)cc3)cc2)nc(N2CC3CCC(C2)O3)n1         0.43
19  CCCCc1nc(-c2ccc(NC(=O)Nc3ccc(CNCCN(C)C)cc3)cc2)nc(N2CCOCC2)n1         1.26
20  CC(C)N1CCN(C(=O)c2ccc(NC(=O)Nc3ccc(-c4nc(N5CCOCC5)nc(N5C6CCC5COC6)n4)cc3)cc2)CC1        -0.49
21  CN(C)C1CCN(C(=O)c2ccc(NC(=O)Nc3ccc(-c4nc(C5CCOCC5)nc(N5CCOCC5)n4)cc3)cc2)CC1        -0.05
22  O=C(Nc1ccncc1)Nc1ccc(-c2nc(N3CCCC3)nc(N3CC4CCC(C3)O4)n2)cc1         0.85
23  CC(C)N1CCN(C(=O)c2ccc(NC(=O)Nc3ccc(-c4nc(N5CCOCC5)nc(N5CC6CCC5CO6)n4)cc3)cc2)CC1 (stereo not shown)         0.18
24  O=C(Nc1ccc(C(=O)NCCN2CCCCC2)cc1)Nc1ccc(-c2nc(N3CCOCC3)nc(N3C4CCC3COC4)n2)cc1        -0.80
25  O=C(Nc1ccc(C(=O)N2CCNCC2)cc1)Nc1ccc(-c2nc(N3CCOCC3)nc(N3CC4CCC3CO4)n2)cc1 (stereo not shown)         0.02
26  O=C(NCCO)Nc1ccc(-c2nc(Nc3ccc(N4CCNCC4)cc3)nc(N3CC4CCC(C3)O4)n2)cc1         0.66
27  O=C(Nc1ccc(-c2nc(Nc3ccc(N4CCNCC4)cc3)nc(N3CC4CCC(C3)O4)n2)cc1)Nc1cccnc1        -0.30
